- testedTarget: human plasma BChE (Homo sapiens, UniProt P06276)
- Construct: pooled human plasma (source of BChE) were used as enzyme sources; from tissue; host or cells: pooled human plasma from patients with mild-to-moderate AD
- measurementNotes: Ex vivo enzyme-inhibition kinetic analysis (Ki and inhibition mode)
- Format: biochemical
- conditionParameters: best-fit nonlinear regression model
Counter-ions that a name gives are not always drawn.
measurementType: Inhibition mode (BChE)

COc1ccc([C@@H]2Sc3ccccc3N(CCN(C)C)C(=O)[C@@H]2OC(C)=O)cc1 [Diltiazem, diltiazem hydrochloride] = competitive inhibitor
CC(C)NCC(O)COc1cccc2ccccc12 (stereo not shown) [Propranolol, Propranolol hydrochloride] = competitive inhibitor

---

- testedTarget: human BChE (Homo sapiens)
- Construct: pooled human plasma (source of BChE) were used as enzyme sources; from tissue; host or cells: pooled human plasma from patients with mild-to-moderate AD
- Sequence (P06276 29-602): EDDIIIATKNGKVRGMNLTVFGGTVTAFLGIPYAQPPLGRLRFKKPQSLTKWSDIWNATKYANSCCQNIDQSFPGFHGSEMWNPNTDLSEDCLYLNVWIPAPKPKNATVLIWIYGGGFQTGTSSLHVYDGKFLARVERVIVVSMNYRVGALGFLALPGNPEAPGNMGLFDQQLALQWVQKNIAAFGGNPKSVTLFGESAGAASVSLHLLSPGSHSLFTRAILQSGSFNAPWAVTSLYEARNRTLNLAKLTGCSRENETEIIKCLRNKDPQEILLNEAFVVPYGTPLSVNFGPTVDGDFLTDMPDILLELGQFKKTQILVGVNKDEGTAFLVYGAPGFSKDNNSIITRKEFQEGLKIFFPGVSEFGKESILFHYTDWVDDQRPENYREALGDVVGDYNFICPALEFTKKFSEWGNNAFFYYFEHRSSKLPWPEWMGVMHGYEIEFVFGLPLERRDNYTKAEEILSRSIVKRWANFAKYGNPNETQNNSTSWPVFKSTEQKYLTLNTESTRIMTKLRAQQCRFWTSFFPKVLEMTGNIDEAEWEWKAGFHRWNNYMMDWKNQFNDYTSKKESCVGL
- measurementNotes: IC50 determination against BChE in pooled human plasma (Ellman)
- Format: biochemical
- Description: The stock solution was prepared at 10 mM in DMSO. Acetylthiocholine iodide (ATC), butyrylthiocholine iodide (BTC), and 5,5′-dithiobis-(2-nitrobenzoic acid) (DTNB) were also purchased from Sigma-Aldrich. Recombinant human AChE (Cat. No. C1682) and pooled human plasma (source of BChE) were used as enzyme sources. […] Substrate concentrations were varied in a two-fold serial dilution: BTC (5 mM–[…]) for BChE and ATC (0.5 mM–31.3 nM) for AChE. […] Absorbance at 412 nm was measured every 2 min for 15–20 min.
Where a name gives a salt, the structure may show the parent alone.
Hi there, I'd appreciate the recorded pIC50 for every entry that follows.
// pIC50 is dimensionless: -log10 of concentration (M)

In one line, give reported pIC50 of the entry CCN(CC)C(C)CN1c2ccccc2Sc2ccccc21 (centres unmarked) [Ethopropazine] .
5.55

In one line, give reported pIC50 of the entry COc1ccc([C@@H]2Sc3ccccc3N(CCN(C)C)C(=O)[C@@H]2OC(C)=O)cc1 [Diltiazem, diltiazem hydrochloride] .
3.82

---

- testedTarget: human BChE (Homo sapiens)
- Construct: pooled human plasma (source of BChE) were used as enzyme sources; from tissue; host or cells: pooled human plasma from patients with mild-to-moderate AD
- measurementNotes: IC50 determination against BChE in pooled human plasma (Ellman)
- Assay type: biochemical
- conditionParameters: 5 mM BTC as substrate; plasma BChE; read-out: IC50 (BChE)
Counter-ions that a name gives are not always drawn.
measurementType: pIC50
// pIC50 is dimensionless: -log10 of concentration (M)

In one line, give reported pIC50 of the entry CC(C)NCC(O)COc1cccc2ccccc12 (stereo not shown) [Propranolol, Propranolol hydrochloride] .
4.25
